Sourced from patent US10597388B2

System: lambsquarters (Chenopodium album)
Assay: Test D controlled growth environment herbicide test, pre- and postemergence
Type: in vivo
Settings: Preemergence, 125 g ai/ha; scale 0 to 100 (0 no effect, 100 complete control)
endpoint: Plant response rating, Lambsquarters
Keep it simple and answer with nothing but the number.

What value of Plant response rating, Lambsquarters has been reported for the following compound? Cc1ccc2sc(Br)c(-c3c(O)c(C)nn(C)c3=O)c2c1
100

What value of Plant response rating, Lambsquarters has been reported for the following compound? Cc1ccc2ccccc2c1-c1c(OC(=O)OC(C)C)c(C)nn(C)c1=O
95

What value of Plant response rating, Lambsquarters has been reported for the following compound? Cn1nc(Br)c(O)c(-c2cccc3ccccc23)c1=O
100

----------
Foxtail, Giant plant response rating values for the molecules below.
System: foxtail, giant (giant foxtail, Setaria faberii)
Test: Test A greenhouse herbicide test, pre- and postemergence
Format: in vivo
Conditions: Preemergence, 125 g ai/ha; 0 to 100 scale where 0 is no effect and 100 is complete control
Source text: […]

In [3]: df
Out[3]:
                                   molecule                              endpoint  result
0  CCOc1ccc2cccc(-c3c(O)c(C)nn(C)c3=O)c2c1 [Compound 92]  Foxtail, Giant plant response rating       0
1  Cc1nn(C)c(=O)c(-c2c(C)sc3ccc(Br)cc23)c1O [Compound 22]  Foxtail, Giant plant response rating      70
2  CC(=O)Oc1c(C)nn(C)c(=O)c1-c1c(C)sc2ccc(C(F)(F)F)cc12 [Compound 132]  Foxtail, Giant plant response rating      70

What value of Foxtail, Giant plant response rating has been reported for the following molecule? Cc1nn(C)c(=O)c(-c2c(C)sc3c(C)cc(Cl)cc23)c1O [Compound 35]
90

What value of Foxtail, Giant plant response rating has been reported for the following molecule? COC(=O)Oc1c(C)nn(C)c(=O)c1-c1c(C(F)(F)F)ccc2ccccc12 [Compound 149]
30

----------
Tested on: blackgrass (Alopecurus myosuroides)
Assay: Test C greenhouse herbicide test, pre- and postemergence
Format: in vivo
Conditions: postemergence, 125 g ai/ha; scale 0 to 100, 0 no effect, 100 complete control
Blackgrass plant response rating values for the compounds below.
Keep it simple and answer with nothing but the number.

>>> df
                      smiles_representation                          endpoint  numeric_readout
0  COC(=O)Oc1c(C)nn(C)c(=O)c1-c1ccc(F)c2ccccc12  Blackgrass plant response rating               55
1  COC(=O)Oc1c(C)nn(C)c(=O)c1-c1ccc(Br)c2ccccc12  Blackgrass plant response rating               30
2  COC(=O)Oc1c(OC)nn(C)c(=O)c1-c1c(C)ccc2ccccc12  Blackgrass plant response rating               30

Item: Cc1nn(C)c(=O)c(-c2ccc(Cl)c3ccccc23)c1O Test system: blackgrass (Alopecurus myosuroides) Read-out: Blackgrass plant response rating Value: ?
60

Item: CC(=O)Oc1c(C)nn(C)c(=O)c1-c1c(C)sc2ccc(C(F)(F)F)cc12 Test system: blackgrass (Alopecurus myosuroides) Read-out: Blackgrass plant response rating Value: ?
25

----------
System: pigweed (Amaranthus retroflexus)
Experiment: Test C greenhouse herbicide test, pre- and postemergence
Assay type: in vivo
Settings: Preemergence, 31 g ai/ha; scale 0 to 100, 0 is no effect, 100 is complete control
Plant response rating, Pigweed values for the compounds below.
Keep it simple and answer with nothing but the number.

Recorded results for 4 compounds are shown here.
In [3]: df
Out[3]:
                      smiles_representation  numeric_readout
0    Cc1cc(C)c2ccccc2c1-c1c(O)c(C)nn(C)c1=O              100
1  Cc1nn(C)c(=O)c(-c2c(C)sc3ccc(C(F)(F)F)cc23)c1O              100
2  CC(=O)Oc1c(Cl)nn(C)c(=O)c1-c1c(C)sc2ccc(C(F)(F)F)cc12               80
3  Cc1nn(C)c(=O)c(-c2c(C)sc3c(C)cc(Cl)cc23)c1O               75

What value of Plant response rating, Pigweed has been reported for the following compound? Cc1cc(C)c2sc(C)c(-c3c(O)c(C)nn(C)c3=O)c2c1
100

What value of Plant response rating, Pigweed has been reported for the following compound? Cc1ccc2sc(Br)c(-c3c(O)c(C)nn(C)c3=O)c2c1
100

What value of Plant response rating, Pigweed has been reported for the following compound? Cc1sc2ccccc2c1-c1c(O)c(Cl)nn(C)c1=O
95

What value of Plant response rating, Pigweed has been reported for the following compound? CC(=O)Oc1c(C)nn(C)c(=O)c1-c1c(C)cc(C)c2ccccc12
95

What value of Plant response rating, Pigweed has been reported for the following compound? COC(=O)Oc1c(C)nn(C)c(=O)c1-c1c(C)sc2ccc(C)cc12
100
